TEST_SUMMARY: Caco-2 permeability assay (CacoReady kit)
Format: in vitro ADME
CONDITIONS: human
ENDPOINT_NAME: Papp

COMPOUND	Papp
CCNC(=O)C(=O)CC[C@H](NC(=O)c1nc(C2(C)CC2)no1)C(=O)Nc1cccn(CC(=O)NC2C3CC4CC2CC(C(N)=O)(C4)C3)c1=O (stereo partly drawn)	< 1 ×10⁻⁶ cm/s
CCNC(=O)C(=O)CC[C@H](NC(=O)c1nc2ccccc2s1)C(=O)Nc1cccn(CC(=O)N[C@@H]2C[C@@H]3CC[C@H]2C3)c1=O	1 to 10 ×10⁻⁶ cm/s
CCNC(=O)C(=O)CC[C@H](NC(=O)c1oc2ccccc2c1Cl)C(=O)Nc1cccn(CC(=O)NC2C3CC4CC(C3)CC2C4)c1=O (stereo partly drawn)	1 to 10 ×10⁻⁶ cm/s

// query Supply Papp value. Item: CCNC(=O)C(=O)CC[C@H](NC(=O)c1cn(C)cn1)C(=O)Nc1cccn(CC(=O)NC23CC4CC(C)(CC(C)(C4)C2)C3)c1=O
// result < 1 ×10⁻⁶ cm/s

// query Please indicate Papp recorded for CCNC(=O)C(=O)CC[C@H](NC(=O)c1c(C)noc1C)C(=O)Nc1cccn(CC(=O)NC2C3CCCC2CC3)c1=O (stereo partly drawn)
// result 1 to 10 ×10⁻⁶ cm/s

// query // Input: CCNC(=O)C(=O)CC[C@H](NC(=O)c1cnc(Cl)n1C)C(=O)Nc1cccn(CC(=O)NC23CC4(C)CC(C)(CC(C)(C4)C2)C3)c1=O . Output its Papp only.
// result < 1 ×10⁻⁶ cm/s

====

ASSAY_SYSTEM: recombinant human transglutaminase 2 (Homo sapiens, UniProt P21980)
Sequence (P21980 whole entry): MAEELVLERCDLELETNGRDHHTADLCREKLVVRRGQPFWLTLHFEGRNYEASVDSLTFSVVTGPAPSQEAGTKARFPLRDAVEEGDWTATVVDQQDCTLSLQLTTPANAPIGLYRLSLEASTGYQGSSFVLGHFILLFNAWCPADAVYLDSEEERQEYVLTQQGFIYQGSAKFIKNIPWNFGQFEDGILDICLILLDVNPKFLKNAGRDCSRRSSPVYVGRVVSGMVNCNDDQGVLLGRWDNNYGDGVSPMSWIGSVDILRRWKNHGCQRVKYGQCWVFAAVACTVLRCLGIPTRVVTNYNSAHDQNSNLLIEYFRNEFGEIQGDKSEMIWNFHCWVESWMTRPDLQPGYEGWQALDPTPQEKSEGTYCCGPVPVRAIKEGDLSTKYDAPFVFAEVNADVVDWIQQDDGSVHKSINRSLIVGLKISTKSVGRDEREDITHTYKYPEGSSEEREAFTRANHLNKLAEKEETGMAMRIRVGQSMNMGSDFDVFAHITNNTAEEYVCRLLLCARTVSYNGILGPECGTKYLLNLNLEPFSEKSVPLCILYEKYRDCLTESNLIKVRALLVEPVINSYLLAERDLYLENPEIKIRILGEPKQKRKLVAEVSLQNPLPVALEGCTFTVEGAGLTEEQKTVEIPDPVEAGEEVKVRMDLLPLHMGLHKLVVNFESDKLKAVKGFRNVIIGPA
TEST_SUMMARY: Transglutaminase assay: incorporation of dansylcadaverine into dimethylcasein (DCC-assay)
Assay type: biochemical
CONDITIONS: recombinant human TG2 10 nM, dansylcadaverine/dimethylcasein; read-out: IC50 TG2
ENDPOINT_NAME: IC50

Study these solved cases before continuing.
COMPOUND	IC50
CCNC(=O)C(=O)CC[C@H](NC(=O)c1cncn1C)C(=O)Nc1cccn(CC(=O)NC23CC4CC(CC(O)(C4)C2)C3)c1=O	600 to 3500 nM
CCNC(=O)C(=O)CC[C@H](NC(=O)c1cn(C2CCCC2)cn1)C(=O)Nc1cccn(CC(=O)NC23CC4CC(CC(CC)(C4)C2)C3)c1=O	600 to 3500 nM
CCNC(=O)C(=O)CC[C@H](NC(=O)c1sc(Br)cc1Br)C(=O)Nc1cccn(CC(=O)NC2C3CC4CC(C3)CC2C4)c1=O (stereo partly drawn)	< 150 nM
CCNC(=O)C(=O)CC[C@H](NC(=O)c1nccc2cnccc12)C(=O)Nc1cccn(CC(=O)NC23CCC(C2)C3)c1=O	600 to 3500 nM
CCNC(=O)C(=O)CC[C@H](NC(=O)c1cncn1C)C(=O)Nc1cccn(CC(=O)NC23CC4CC(C)(CC(C)(C4)C2)C3)c1=O	< 150 nM

// query Send back recombinant human transglutaminase 2 (Homo sapiens, UniProt P21980) IC50 of CCNC(=O)C(=O)CC[C@H](NC(=O)c1cn(C)cn1)C(=O)Nc1cccn(CC(=O)NC23CC4CC(C)(CC(C)(C4)C2)C3)c1=O only.
// result 600 to 3500 nM

// query Provide IC50, recorded with recombinant human transglutaminase 2 (Homo sapiens, UniProt P21980), of CCNC(=O)C(=O)CC[C@H](NC(=O)c1csc2ccccc12)C(=O)Nc1cccn(CC(=O)NC23CCCC4CC(CCC42)C3)c1=O (stereo partly drawn)
// result 150 to 600 nM

// query GET IC50 | system: recombinant human transglutaminase 2 (Homo sapiens, UniProt P21980) | item: CCNC(=O)C(=O)CC[C@H](NC(=O)c1cc(C(=O)OC)cc([N+](=O)[O-])c1)C(=O)Nc1cccn(CC(=O)NC2(C(=O)OC)C3CC4CC(C3)CC2C4)c1=O (stereo partly drawn)
// result < 150 nM

// query Report value only: IC50, recombinant human transglutaminase 2 (Homo sapiens, UniProt P21980), CCNC(=O)C(=O)CC[C@H](NC(=O)c1cncn1C)C(=O)Nc1cccn(CC(=O)NC23CC4CC(CC(Cl)(C4)C2)C3)c1=O
// result 150 to 600 nM

====

TEST_SUMMARY: Caco-2 permeability assay (CacoReady kit)
Assay type: in vitro ADME
CONDITIONS: human
ENDPOINT_NAME: Papp

Illustrative cases are given below, each with its answer.
COMPOUND	ENDPOINT_NAME	MEASUREMENT
CCNC(=O)C(=O)CC[C@H](NC(=O)c1ncns1)C(=O)Nc1cccn(CC(=O)NC23CC(C2)C3)c1=O	Papp	< 1 ×10⁻⁶ cm/s
CCNC(=O)C(=O)CC[C@H](NC(=O)c1nncs1)C(=O)Nc1cccn(CC(=O)NC23CC(C2)C3)c1=O	Papp	< 1 ×10⁻⁶ cm/s
CCNC(=O)C(=O)CC[C@H](NC(=O)c1cnn(C)c1)C(=O)Nc1cccn(CC(=O)NC23CC4CC5C2C[C@@H]2C[C@H]5C(C4)[C@H]3C2)c1=O	Papp	< 1 ×10⁻⁶ cm/s

// query Supply measured Papp of CCNC(=O)C(=O)CC[C@H](NC(=O)c1cncn1C)C(=O)Nc1cccn(CC(=O)NC[C@@H]2CC[C@@H]3C[C@H]2C3(C)C)c1=O in your reply.
// result < 1 ×10⁻⁶ cm/s

// query Provide one value: measured Papp of CCNC(=O)C(=O)CC[C@H](NC(=O)c1cc(Br)c(Br)s1)C(=O)Nc1cccn(CC(=O)NC2C3CC4CC(C3)CC2C4)c1=O (stereo partly drawn)
// result 1 to 10 ×10⁻⁶ cm/s

// query Supply Papp value. Item: CCNC(=O)C(=O)CC[C@H](NC(=O)c1cc2cccnc2nc1C)C(=O)Nc1cccn(CC(=O)NC23CC(C2)C3)c1=O
// result < 1 ×10⁻⁶ cm/s

====

Parameter logD: see the listing below.
TEST_SUMMARY: Log D by shake flask method (octanol / PBS pH 7.4, HPLC)
Type: physicochemical
CONDITIONS: octanol / PBS pH 7.4, shake flask; read-out: logD

Answered examples (3):
MOLECULE	ENDPOINT_NAME	MEASUREMENT
CCNC(=O)C(=O)CC[C@H](NC(=O)c1cc(Br)sc1Br)C(=O)Nc1cccn(CC(=O)NC2C3CC4CC(C3)CC2C4)c1=O (stereo partly drawn) [Compound I-47]	logD	3 to 5
CCNC(=O)C(=O)CC[C@H](NC(=O)C1CN2CCC1CC2)C(=O)Nc1cccn(CC(=O)NC2(C#N)C3CC4CC(C3)CC2C4)c1=O (stereo partly drawn) [Compound I-63]	logD	< 1
CCNC(=O)C(=O)CC[C@H](NC(=O)[C@@H]1CCCNC1)C(=O)Nc1cccn(CC(=O)NC2C3CC4CC2CC(Br)(C4)C3)c1=O (stereo partly drawn) [Compound I-61]	logD	1 to 3

// query Hello, please tell me recorded logD for this one: CCOC(=O)/C=C/CC[C@H](NC(=O)c1cccnc1)C(=O)Nc1ccc(C)n(CC(=O)NCCc2ccccc2)c1=O [Ref. 3, reference compound]
// result 1 to 3

// query Look up and state reported logD for CCNC(=O)C(=O)CC[C@H](NC(=O)c1nn[nH]n1)C(=O)Nc1cccn(CC(=O)NC2C3CC4CC(C3)CC2C4)c1=O (stereo partly drawn) [Compound I-57]
// result < 1

// query Read off the recorded logD for CCNC(=O)C(=O)CC[C@H](NC(=O)c1cc2cccc(F)c2s1)C(=O)Nc1cccn(CC(=O)NC2C3CC4CC(C3)CC2C4)c1=O (stereo partly drawn) [Compound I-35]
// result 3 to 5

====

TEST_SUMMARY: Log D by shake flask method (octanol / PBS pH 7.4, HPLC)
Type: physicochemical
CONDITIONS: octanol / PBS pH 7.4, shake flask; read-out: logD
ENDPOINT_NAME: logD

COMPOUND	MEASUREMENT
CCNC(=O)C(=O)CC[C@H](NC(=O)c1sc(-c2ccccc2)nc1C)C(=O)Nc1cccn(CC(=O)NC2C3CC4CC(C3)CC2C4)c1=O (stereo partly drawn) [Compound I-42]	3 to 5
CCNC(=O)C(=O)CC[C@H](NC(=O)c1nccn1C)C(=O)Nc1cccn(CC(=O)NC23CC4CC(CC(CC)(C4)C2)C3)c1=O [Compound I-16]	1 to 3
CCNC(=O)C(=O)CC[C@H](NC(=O)c1cc(Br)c(Br)s1)C(=O)Nc1cccn(CC(=O)NC2C3CC4CC(C3)CC2C4)c1=O (stereo partly drawn) [Compound I-53]	3 to 5
CCNC(=O)C(=O)CC[C@H](NC(=O)c1cncc([N+](=O)[O-])c1)C(=O)Nc1cccn(CC(=O)NCC23CC4CC(CC(C4)C2)C3)c1=O [Compound I-65]	1 to 3
CCNC(=O)C(=O)CC[C@H](NC(=O)c1nccn1C)C(=O)Nc1cccn(CC(=O)NC23CC4CC(C)(CC(C)(C4)C2)C3)c1=O [Compound I-23]	1 to 3

Would you kindly look at the next entry?
// query Query logD for CCNC(=O)C(=O)CC[C@H](NC(=O)c1cnc2ccc(OC(F)(F)F)cc2c1O)C(=O)Nc1cccn(CC(=O)N[C@@H]2C[C@@H]3CC[C@H]2C3)c1=O [Compound I-99]
// result 3 to 5
